Origin of values: ChEMBL document CHEMBL1122774

# Tested on: Canis familiaris
# Assay: Renal vasodilator activity in anesthetized dogs and percent change in heart rate (HR) was determined at 30 ug/kg min
# Type: functional, Canis lupus familiaris
Square brackets hold non-standard residues; d marks the D form. Peptide text beside a SMILES is read from it. * marks the point of attachment. ξ: configuration not given here. pNA = O=[N+]([O-])c1ccc(N*)cc1; ξαMeF = CC(N)(Cc1ccccc1)C(=O)O; PhAc = O=C(Cc1ccccc1)*; Bz = O=C(c1ccccc1)*
Measured quantity: Change (%)
Answers are plain numbers, in %.

These recorded examples may help you get a feel for the data.
Compound	Assay result
Cl.NCCCNC(=O)[C@@H]1Cc2ccccc2CN1C(=O)CCCc1ccc(O)cc1	-2
N=C(N)NCCC[C@H](NC(=O)[C@H](Cc1ccccc1)NC(=O)[C@@H]1CCCN1)C(=O)O (H-Pro-Phe-Arg-OH)	3
CC(Cc1ccccc1)(NC(=O)[C@@H]1CCCN1C(=O)Cc1ccccc1)C(=O)N[C@@H](CCCN=C(N)N)C(=O)O (some centres not stated) (PhAc-Pro-[ξαMeF]-Arg-OH)	-2

// batch mode: one Change value per listed entry
1. N=C(N)NCCC[C@H](NC(=O)[C@H](Cc1ccccc1)NC(=O)[C@@H]1CCCN1C(=O)c1ccccc1)C(=O)Nc1ccc([N+](=O)[O-])cc1 (Bz-Pro-Phe-Arg-pNA)
2. N=C(N)NCCC[C@H](NC(=O)[C@H](Cc1ccccc1)NC(=O)[C@@H]1CCCN1C(=O)CCCc1ccccc1)C(=O)O
3. CC(Cc1ccccc1)(NC(=O)[C@@H]1CCCN1)C(=O)N1CCC[C@H]1C(=O)O (some centres not stated) (H-Pro-[ξαMeF]-Pro-OH)
4. N=C(N)NCCC[C@H](NC(=O)[C@@H](Cc1ccccc1)NC(=O)[C@@H]1CCCN1C(=O)CCCc1ccccc1)C(=O)O

-3
1.7
0
0

---

# Tested on: Canis familiaris
# Assay: In vivo percent change in canine renal blood flow (RBF) at 300 ug/Kg/min.
# Format: functional, Canis lupus familiaris, Kidney
Square brackets hold non-standard residues; d marks the D form. Peptide text beside a SMILES is read from it. * marks the point of attachment. ξ: configuration not given here. Butanoyl(4-(4-HOPh)) = O=C(CCCc1ccc(O)cc1)*; ξαMeF = CC(N)(Cc1ccccc1)C(=O)O; Bz = O=C(c1ccccc1)*
Measured quantity: Change (%)
One number for each entry, in %.

These recorded examples may help you get a feel for the data.
Molecule	Experimental target	Change / %
O=C(NCC(=O)N1CCC[C@H]1C(=O)O)[C@@H](Cc1ccccc1)NC(=O)[C@@H]1CCCN1C(=O)CCCc1ccc(O)cc1 ({Butanoyl(4-(4-HOPh))}-P[dF]GP-OH)	Canis familiaris	-1
O=C(NCC(=O)N1CCC[C@H]1C(=O)O)[C@H](Cc1ccccc1)NC(=O)[C@@H]1CCCN1C(=O)CCCc1ccc(O)cc1 ({Butanoyl(4-(4-HOPh))}-PFGP-OH)	Canis familiaris	7
Cl.NCCCNC(=O)[C@H](Cc1ccccc1)NC(=O)[C@@H]1CCCN1C(=O)CCCc1ccccc1	Canis familiaris	6.5
CC(Cc1ccc(O)cc1)(NC(=O)[C@@H]1CCCN1C(=O)CCCc1ccc(O)cc1)C(=O)NCCCN.Cl (some centres not stated)	Canis familiaris	10

// batch mode: one Change value per listed entry
1. N=C(N)NCCC[C@H](NC[C@H](Cc1ccccc1)NC(=O)[C@@H]1CCCN1)C(=O)O
2. CC(Cc1ccccc1)(NC(=O)[C@@H]1CCCN1C(=O)CCCc1ccccc1)C(=O)N1CCC[C@H]1C(=O)O (some centres not stated)
3. CC(Cc1ccccc1)(NC(=O)[C@@H]1CCCN1C(=O)c1ccccc1)C(=O)N[C@@H](CCCN=C(N)N)C(=O)O (some centres not stated) (Bz-Pro-[ξαMeF]-Arg-OH)

1: 0; 2: 4; 3: -3

---

Please provide measured Change for the entries that follow.
# Test system: Canis familiaris
# Assay: Renal vasodilator activity in anesthetized dogs and percent change in renal vascular resistance (RVR) was determined at 30 ug/kg min
# Type: functional, Canis lupus familiaris
Square brackets hold non-standard residues; d marks the D form. Peptide text beside a SMILES is read from it. * marks the point of attachment. ξ: configuration not given here. ξαMeF = CC(N)(Cc1ccccc1)C(=O)O; PhAc = O=C(Cc1ccccc1)*
Answers are plain numbers, in %.

These recorded examples may help you get a feel for the data.
Molecule	Change (%)
N=C(N)NCCC[C@H](NC(=O)[C@H](Cc1ccccc1)NC(=O)[C@@H]1CCCN1C(=O)CCCc1ccccc1)C(=O)O	-3.7
Cl.NCCCNC(=O)[C@@H]1Cc2ccccc2CN1C(=O)CCCc1ccc(O)cc1	-6
CC(Cc1ccccc1)(NC(=O)[C@@H]1CCCN1)C(=O)N1CCC[C@H]1C(=O)O (some centres not stated) (H-Pro-[ξαMeF]-Pro-OH)	0

// batch mode: one Change value per listed entry
1. CC(Cc1ccccc1)(NC(=O)[C@@H]1CCCN1C(=O)CCCCc1ccccc1)C(=O)N[C@@H](CCCN=C(N)N)C(=O)O (some centres not stated)
2. CC(Cc1ccc(O)cc1)(NC(=O)[C@@H]1CCCN1C(=O)CCCc1ccc(O)cc1)C(=O)N[C@@H](CCCN=C(N)N)C(=O)O (some centres not stated)
3. N=C(N)NCCC[C@H](NC(=O)[C@@H](Cc1ccccc1)NC(=O)[C@@H]1CCCN1C(=O)CCCc1ccccc1)C(=O)O

1: 1; 2: -20; 3: -1

Enter measured Change, system Canis familiaris, for the molecule shown: CC(Cc1ccccc1)(NC(=O)[C@@H]1CCCN1C(=O)Cc1ccccc1)C(=O)N[C@@H](CCCN=C(N)N)C(=O)O (some centres not stated) (PhAc-Pro-[ξαMeF]-Arg-OH) 0

---

# System: Canis familiaris
# Assay: Renal vasodilator activity in anesthetized dogs and percent change in renal vascular resistance (RVR) was determined at 30 ug/Kg/min
# Format: functional, Canis lupus familiaris
Square brackets hold non-standard residues; d marks the D form. Peptide text beside a SMILES is read from it. * marks the point of attachment. ξ: configuration not given here. Butanoyl(4-(4-HOPh)) = O=C(CCCc1ccc(O)cc1)*; ξαMeY = CC(N)(Cc1ccc(O)cc1)C(=O)O; ξαMeF = CC(N)(Cc1ccccc1)C(=O)O
Measured quantity: Change (%)
Numbers only, in %.

Compound	Change (%)
CC(Cc1ccccc1)(NC(=O)[C@@H]1CCCN1C(=O)CCCc1ccc(O)cc1)C(=O)NCCCN.Cl (stereo partly specified)	-4.7
COc1ccc(CC(C)(NC(=O)[C@@H]2CCCN2C(=O)CCCc2ccc(O)cc2)C(=O)N[C@@H](CCCN=C(N)N)C(=O)O)cc1OC (stereo partly specified)	-21.3
O=C(NCC(=O)N1CCC[C@H]1C(=O)O)[C@@H](Cc1ccccc1)NC(=O)[C@@H]1CCCN1C(=O)CCCc1ccc(O)cc1 ({Butanoyl(4-(4-HOPh))}-P[dF]GP-OH)	-1
CC(Cc1ccc(O)cc1)(NC(=O)[C@@H]1CCCN1C(=O)CCCc1ccc(O)cc1)C(=O)NCCCN.Cl (stereo partly specified)	-3
CC(Cc1ccccc1)(NC(=O)[C@@H]1CCCN1C(=O)CCCc1ccc(O)cc1)C(=O)NCC(=O)N1CCC[C@H]1C(=O)O (stereo partly specified) ({Butanoyl(4-(4-HOPh))}-P[ξαMeF]GP-OH)	-21
CC(Cc1ccc(O)cc1)(NC(=O)[C@@H]1CCCN1C(=O)CCCc1ccc(O)cc1)C(=O)NCC(=O)N1CCC[C@H]1C(=O)O (stereo partly specified) ({Butanoyl(4-(4-HOPh))}-P[ξαMeY]GP-OH)	-0.5
Cl.NCCCNC(=O)[C@H](Cc1ccccc1)NC(=O)[C@@H]1CCCN1C(=O)CCCc1ccccc1	-3.8
O=C(NCC(=O)N1CCC[C@H]1C(=O)O)[C@H](Cc1ccccc1)NC(=O)[C@@H]1CCCN1C(=O)CCCc1ccc(O)cc1 ({Butanoyl(4-(4-HOPh))}-PFGP-OH)	74.5
N=C(N)NCCC[C@H](NC(=O)[C@@H]1Cc2ccccc2CN1C(=O)CCCc1ccc(O)cc1)C(=O)O	-1
CC(Cc1ccccc1)(NC(=O)[C@@H]1CCCN1C(=O)CCCc1ccccc1)C(=O)NCCCN.Cl (stereo partly specified)	-6

Consider now this further compound.
Give the measured Change for CC(CN[C@@H](CCCN=C(N)N)C(=O)O)(Cc1ccccc1)NC(=O)[C@@H]1CCCN1C(=O)CCCc1ccccc1 (stereo partly specified) -9

---

# System: Canis familiaris
# Assay: In vivo percent change in canine renal vascular resistance (RVR) at 300 ug/Kg/min.
# Format: functional, Canis lupus familiaris
Square brackets hold non-standard residues; d marks the D form. Peptide text beside a SMILES is read from it. * marks the point of attachment. ξ: configuration not given here. Butanoyl(4-(4-HOPh)) = O=C(CCCc1ccc(O)cc1)*; ξαMeF = CC(N)(Cc1ccccc1)C(=O)O
Measured quantity: Change (%)
One number for each entry, in %.

These recorded examples may help you get a feel for the data.
Compound	Assay result
O=C(NCC(=O)N1CCC[C@H]1C(=O)O)[C@@H](Cc1ccccc1)NC(=O)[C@@H]1CCCN1C(=O)CCCc1ccc(O)cc1 ({Butanoyl(4-(4-HOPh))}-P[dF]GP-OH)	-1
N=C(N)NCCC[C@H](NC[C@H](Cc1ccccc1)NC(=O)[C@@H]1CCCN1)C(=O)O	-2
O=C(NCC(=O)N1CCC[C@H]1C(=O)O)[C@H](Cc1ccccc1)NC(=O)[C@@H]1CCCN1C(=O)CCCc1ccc(O)cc1 ({Butanoyl(4-(4-HOPh))}-PFGP-OH)	-8.5
CC(CN[C@@H](CCCN=C(N)N)C(=O)O)(Cc1ccccc1)NC(=O)[C@@H]1CCCN1 (stereo partly drawn)	-11
CC(Cc1ccc(O)cc1)(NC(=O)[C@@H]1CCCN1C(=O)CCCc1ccc(O)cc1)C(=O)NCCCN.Cl (stereo partly drawn)	8.5
CC(Cc1ccccc1)(NC(=O)[C@@H]1CCCN1C(=O)CCCc1ccc(O)cc1)C(=O)NCC(=O)N1CCC[C@H]1C(=O)O (stereo partly drawn) ({Butanoyl(4-(4-HOPh))}-P[ξαMeF]GP-OH)	-17
Cl.Cl.NCCCNC(=O)[C@H](Cc1ccccc1)NC(=O)[C@@H]1CCCN1	-9

Consider now this further compound.
Give the measured Change for CC(Cc1ccccc1)(NC(=O)[C@@H]1CCCN1C(=O)CCCc1ccc(O)cc1)C(=O)NCCCCCC(=O)O (stereo partly drawn) -4
